Test: Biodistribution in male ddY mouse blood administered intravenously and measured at 60 mins postinjection by gamma counter analysis
Assay type: ADME, organism-based
Settings: in vivo, iv, 1 h
Parameter Drug uptake: see the listing below.
measured_quantity: Drug uptake (% ID/g)

[[record]]
chemical_smiles = "Cc1ccc(-n2nccn2)c(C(=O)N2CCCN(c3nc4ccc([18F])cc4s3)C[C@@H]2C)c1"
measured_quantity = "Drug uptake"
unit_abbrev = "% ID/g"
obs_value = 1.46

[[record]]
chemical_smiles = "Cc1ccc(-n2nccn2)c(C(=O)N2CCCN(c3nc4cc([18F])ccc4s3)C[C@@H]2C)c1"
measured_quantity = "Drug uptake"
unit_abbrev = "% ID/g"
obs_value = 0.64

[[record]]
chemical_smiles = "C[C@H]1CN(c2nc3ccc(F)cc3s2)CCCN1C(=O)c1cc([18F])ccc1-n1nccn1"
measured_quantity = "Drug uptake"
unit_abbrev = "% ID/g"
obs_value = 0.55

[[record]]
chemical_smiles = "C[C@H]1CN(c2nc3ccccc3s2)CCCN1C(=O)c1cc([18F])ccc1-n1nccn1"
measured_quantity = "Drug uptake"
unit_abbrev = "% ID/g"
obs_value = 0.64

